- System: SK-MEL-28
- method-summary: NCI tumour cell line growth inhibition, 48 h
Active and inactive are the calls of the source. No stated cut-off is given here; in the data, active = GI50 up to about 1.1 µM and inactive = higher.
measure: GI50

Field: example entries. Status: answers known.
CCOC(C)C(/C=N/NC(N)=S)=NNC(N)=S (centres undefined) [GLOXAZONE] | > 74.1 µM (inactive)
Cc1cccc2c1CC1(Cc3c(C)cccc3C1=O)C2=O | > 100 µM (inactive)
CC1=Nc2ccccc2/C1=C\c1c(C)[nH]c2ccccc12 | 16.6 µM (inactive)

Alright, here's another compound for you.
Input line: # returns recorded GI50 (system: SK-MEL-28) for Cc1cccc(C(C)C)c1NC(=O)/C(Cc1c([N+](=O)[O-])cccc1[N+](=O)[O-])=N/NC(=O)CC#N
Output line: > 100 µM (inactive)

* * *

- Test system: MDA-MB-231
- method-summary: NCI tumour cell line growth inhibition, 48 h
Active and inactive are the calls of the source. Rule as the data show it: active = GI50 up to about 1.1 µM and inactive = higher.
Your answer must be one of the following: active, inactive

Check out these entries, answers already filled in.
NC(=O)C(=CNC(=S)Nc1ccc(Cl)c(Cl)c1)C(N)=O | inactive
CC(C)(C)OC(=O)NC(CCCCNC(=O)OCc1ccccc1)C(=O)NC(CCCCNC(=O)OCc1ccccc1)C(=O)ON1C(=O)CCC1=O (configuration not stated) | inactive
Clc1ccc(Cc2nc3ccccc3o2)cc1 | inactive
CC1=N[C@](C)(C2CC3C=CC2C3=O)COC1=O (some centres not stated) | inactive
COCc1nc2c(OC)c(-c3nc4ccc(N5CCN(C)CC5)cc4[nH]3)cc(OC)c2[nH]1 | inactive
CCN(CCCl)c1cc(CN(C)C)cc(NC(=O)c2ccc(C(=O)Nc3cccc(N(CCCl)NN)c3)cc2)c1 | active

In the following, a different compound is considered.
Input line: I would be grateful if you could indicate the recorded call for COC(=O)/C=C\C(C#N)(C#N)/N=C/c1cccs1 .
Output line: inactive

* * *

- Tested on: PC-3
- method-summary: NCI tumour cell line growth inhibition, 48 h
Activity calls are given as the source filed them. Cut-off read from the data, not from the text of the source: active = GI50 up to about 1.1 µM and inactive = higher.
Your answer must be one of the following: active, inactive

Check out these entries, answers already filled in.
O=C1CSC(c2c[nH]c3ccccc23)N1c1ccc(Cl)cc1Cl (stereo not drawn) | inactive
CO[C@H]1[C@@H](O)[C@@H](C)O[C@@H](O[C@H]2CC[C@@]3(C)[C@H](CC[C@@H]4[C@@H]3CC[C@]3(C)[C@@H](C5=CC(=O)OC5)CC[C@]43O)C2)[C@@H]1O [ODOROSIDE H] | active
CN(C)c1ccc(-c2ccc(N(C)C)c3n[se]nc23)c2n[se]nc12 | inactive
O=C1C[C@H](Sc2ccccc2)C2(OCCO2)[C@@H](Sc2ccccc2)C1 | inactive
Cc1c(O)c(=O)ccn1CCc1c[nH]c2ccccc12 | inactive

Input line: I would be grateful if you could indicate the recorded call for COc1ccc2c(c1OC)C(Br)CCC(Br)(Br)C2=O (stereo not drawn) .
Output line: inactive

Input line: Next entry: CCCC#CCOC(=O)c1cc([N+](=O)[O-])cc([N+](=O)[O-])c1
Output line: inactive

* * *

- Tested on: EKVX
- method-summary: NCI tumour cell line growth inhibition, 48 h
The source made the active and inactive calls. No stated cut-off is given here; in the data, active = GI50 up to about 1.1 µM and inactive = higher.
Quick list: GI50 per entry.

CCOC(=O)C(NCc1ccc2c(c1)OCO2)(NC(=O)c1ccccc1)C(F)(F)F (stereo not given) | 86.1 µM (inactive)

Input line: I am curious: what GI50 value has been reported for N#CC(c1cc(Cl)ncn1)c1nc2cc(C(F)(F)F)ccc2s1 (stereo not given) ?
Output line: 14.5 µM (inactive)

Input line: Next entry: CCc1ccccc1NC(=O)C1=C(C)NC(C)=C(C(=O)Nc2c(CC)cccc2CC)C1c1ccc2c(c1)OCO2 (stereo not given)
Output line: 24.2 µM (inactive)

Input line: Next entry: COc1ccc(C2SC(=N)Nc3c2c(C)nn3C(=O)Cc2ccccc2)cc1 (stereo not given)
Output line: > 100 µM (inactive)

Input line: Next entry: O=C(N/C(=C\c1cc(Cl)ccc1Cl)c1nc2cc(Cl)ccc2[nH]1)c1ccccc1
Output line: 23 µM (inactive)

* * *

- Tested on: SNB-19
- method-summary: NCI tumour cell line growth inhibition, 48 h
Calls of active or inactive are those of the source. Cut-off read from the data, not from the text of the source: active = GI50 up to about 1.1 µM and inactive = higher.
Your answer must be one of the following: active, inactive

Check out these entries, answers already filled in.
N#CCCn1[nH]c(=O)c(Cl)c(Cl)c1=O | inactive
Clc1ccc(Cc2nc3ccccc3o2)cc1 | inactive
CCC1CC(C)C(O)/C=C/C=C/CC(C)OC(=O)CC(O)C(OC)C1OC1OC(C)CC(O)(C(C)=O)C1O (stereo not given) | inactive

Input line: I would be grateful if you could indicate the recorded call for COc1cc(C=C2C(=O)OC(C)(C)OC2=O)cc(OC)c1OC .
Output line: inactive

Input line: Next entry: CC1(Cl)CCC2(CC(Br)=CC3OC32C)CC1Br (stereo not given)
Output line: inactive

Input line: Next entry: COC(=O)C1=C(C(=O)OC)C(C(=O)OC)C(C(=O)OC)C(C(=O)OC)(C(=O)OC)C(C(=O)OC)=C1C(=O)OC (stereo not given)
Output line: inactive

Input line: Next entry: COc1cc2c(c(OC)c1OC)-c1ccc(SC)c(=O)cc1[C@@H](NCc1ccc([N+](=O)[O-])cc1)CC2
Output line: active

Input line: Next entry: CCn1ncc2c(=O)n3ncn(-c4ccc(Br)cc4)c3nc21
Output line: inactive

Input line: Next entry: CN(C)CCNC(=O)c1ccc(Cl)c2c(Nc3ccc(S(N)(=O)=O)cc3)c3ccccc3nc12
Output line: inactive

Input line: Next entry: NCCCOc1ccc([N+](=O)[O-])cc1Cl
Output line: inactive

* * *

- System: UACC-257
- method-summary: NCI tumour cell line growth inhibition, 48 h
Calls of active or inactive are those of the source. No stated cut-off is given here; in the data, active = GI50 up to about 1.1 µM and inactive = higher.
measure: GI50

NC(=O)C(=CNC(=S)Nc1ccc(Cl)c(Cl)c1)C(N)=O | > 100 µM (inactive)
CC1=Nc2ccccc2S(=O)(=O)N1 | > 100 µM (inactive)
Oc1ccc(Cl)cc1Sc1cc(Cl)ccc1O | 6.65 µM (inactive)
CC1CCc2sc3nc(S)n(C)c(=O)c3c2C1 (centres undefined) | 35.3 µM (inactive)
O=C1c2ccccc2C(=O)N1/N=C1/SC(=N\c2ccccc2)/C(=N/c2ccccc2)N1c1ccccc1 | > 100 µM (inactive)

Input line: I am curious: what GI50 value has been reported for COC(=O)CCCc1ccc2c(c1)CC1(C2)Cc2cc3c(cc2C1)CCCC3 ?
Output line: 33.8 µM (inactive)

Input line: Next entry: CCN(CCCl)c1cc(CN(C)C)cc(NC(=O)c2ccc(C(=O)Nc3cccc(N(CCCl)NN)c3)cc2)c1
Output line: 0.174 µM (active)

Input line: Next entry: CCN1C[C@]2(C)CC[C@H](OC)C34C1C([C@H](OC(C)=O)[C@@H]32)[C@@]1(OC)C[C@H](OC)[C@H]2C[C@@H]4[C@@H]1[C@H]2O
Output line: > 100 µM (inactive)

Input line: Next entry: COC(=O)[C@@]12OC[C@]34C([C@@H](O)C1O)[C@@]1(C)CC(=O)C(OC(=O)CC(C)C(F)(F)F)=C(C)C1C[C@H]3OC(=O)[C@H](O)[C@H]42 (some centres undefined)
Output line: 2.93 µM (inactive)

* * *

- Tested on: SK-MEL-2
- method-summary: NCI tumour cell line growth inhibition, 48 h
Active and inactive are the calls of the source. No stated cut-off is given here; in the data, active = GI50 up to about 1.1 µM and inactive = higher.
measure: GI50

Field: example entries. Status: answers known.
Cn1cnc([N+](=O)[O-])c1Sc1nnc(C(F)(F)F)n1C | 21.9 µM (inactive)
CC1=Nc2ccccc2S(=O)(=O)N1 | > 100 µM (inactive)
CCCCCCCSc1nc2c(C(=O)OCC)ncn2c2ccccc12 | > 100 µM (inactive)
O=C1[C@H](O)[C@@H]2C(O)O[C@H]3[C@@H]2N1C[C@H]3[Si](c1ccccc1)(c1ccccc1)c1ccccc1 (stereo not given in full) | > 100 µM (inactive)
CON(C)C(=O)C1CCCO1 (stereo not given) | > 100 µM (inactive)
N#Cc1c(C#N)c(-c2ccccc2)n(-c2ccccc2)c1N | 99.1 µM (inactive)
COc1cc(/C=C2\CCC/C(=C\c3cc(OC)c(O)c(OC)c3)C2=O)cc(OC)c1O | 2.4 µM (inactive)
O=C(c1nc2ccc(Cl)cc2nc1O)C(O)c1ccccc1 (stereo not given) | > 100 µM (inactive)

Input line: I am curious: what GI50 value has been reported for Nn1c(S)nnc1N/N=C1/C(=O)Nc2ccccc21 ?
Output line: > 100 µM (inactive)

Input line: Next entry: FC(F)(F)c1ccc(Cc2nc3cc4ccccc4cc3[nH]2)cc1
Output line: > 100 µM (inactive)

Input line: Next entry: O=C1c2cc3c(cc2CC12Cc1ccc4c(c1C2=O)CCCC4)CCCC3 (stereo not given)
Output line: 45.6 µM (inactive)

Input line: Next entry: CC(=O)CCN1CC2CN=NC2(C#N)C1 (stereo not given)
Output line: > 100 µM (inactive)

Input line: Next entry: COc1cc(CC2C(=O)OCC2Cc2ccc(OC)c(OC)c2)ccc1O (stereo not given)
Output line: > 100 µM (inactive)

Input line: Next entry: Cc1cc2cc3c(C)cc(=O)oc3c(C)c2o1
Output line: > 100 µM (inactive)
